For each record, write down the corresponding IC50.
Molecular target: human V1b receptor (Homo sapiens)
Sequence (P47901 1-424): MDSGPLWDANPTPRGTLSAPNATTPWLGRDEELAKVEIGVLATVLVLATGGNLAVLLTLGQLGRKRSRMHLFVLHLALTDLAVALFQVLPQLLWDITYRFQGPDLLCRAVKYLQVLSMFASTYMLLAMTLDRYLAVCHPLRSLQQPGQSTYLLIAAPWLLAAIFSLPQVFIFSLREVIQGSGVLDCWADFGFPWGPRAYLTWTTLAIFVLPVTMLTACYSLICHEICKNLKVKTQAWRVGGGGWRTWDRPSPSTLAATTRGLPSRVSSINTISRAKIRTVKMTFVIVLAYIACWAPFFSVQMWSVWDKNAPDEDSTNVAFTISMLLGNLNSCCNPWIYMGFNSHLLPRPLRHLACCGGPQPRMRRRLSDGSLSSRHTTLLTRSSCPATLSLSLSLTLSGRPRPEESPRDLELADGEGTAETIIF
Experiment: V1b functional assay, intracellular calcium mobilization in transfected HEK-293 cells (FLIPR)
Assay type: cell-based
Set-up: expressed in transfected cells; host or cells: HEK-293
Details: challenge 0.5 nM AVP; read-out: Cell-Based Functional activity V1b IC50
Structures can show the parent of a compound that is named as a salt.
Numbers only; they are read as µM.

q: # get_value(readout= IC50, system= human V1b receptor (Homo sapiens)) for CCN(CC)CCn1c(=O)n(C2CCN(C(=S)NC(c3ccccc3)c3ccccc3)CC2)c2ccccc21 [Compound 35]
a: 9.99

q: # get_value(readout= IC50, system= human V1b receptor (Homo sapiens)) for NCCn1c(=O)n(C2CCN(C(=S)NC(c3ccccc3)c3ccccc3)CC2)c2ccccc21 [Compound 63, Hydrochloride]
a: 8.06

q: # get_value(readout= IC50, system= human V1b receptor (Homo sapiens)) for NCCCn1c(=O)n(C2CCN(C(=S)NC(c3ccccc3)c3ccccc3)CC2)c2ccccc21 [Compound 55, Monohydrochloride]
a: 0.318

q: # get_value(readout= IC50, system= human V1b receptor (Homo sapiens)) for NCCCCn1c(=O)n(C2CCN(C(=S)NC(c3ccccc3)c3ccc(Cl)cc3)CC2)c2ccccc21 (stereo not drawn) [Compound 65]
a: 21

q: # get_value(readout= IC50, system= human V1b receptor (Homo sapiens)) for N=C(N)NCCCn1c(=O)n(C2CCN(C(=S)NC(c3ccccc3)c3ccccc3)CC2)c2ccccc21 [Compound 59]
a: 6.61

q: # get_value(readout= IC50, system= human V1b receptor (Homo sapiens)) for NCCCCn1c(=O)n(C2CCN(C(=S)NC(c3ccccc3)c3ccccc3)CC2)c2ccccc21 [Compound 64]
a: 12.1

====

target: human V2 receptor (Homo sapiens, UniProt P30518); test: V2 binding assay (3H-AVP displacement, HEK-293 membranes); set-up: expressed in transfected cells; host or cells: HEK-293 (membranes); settings: 1.0 μM compound; read-out: V2@1.0, % Inh
Sequence (P30518 whole entry): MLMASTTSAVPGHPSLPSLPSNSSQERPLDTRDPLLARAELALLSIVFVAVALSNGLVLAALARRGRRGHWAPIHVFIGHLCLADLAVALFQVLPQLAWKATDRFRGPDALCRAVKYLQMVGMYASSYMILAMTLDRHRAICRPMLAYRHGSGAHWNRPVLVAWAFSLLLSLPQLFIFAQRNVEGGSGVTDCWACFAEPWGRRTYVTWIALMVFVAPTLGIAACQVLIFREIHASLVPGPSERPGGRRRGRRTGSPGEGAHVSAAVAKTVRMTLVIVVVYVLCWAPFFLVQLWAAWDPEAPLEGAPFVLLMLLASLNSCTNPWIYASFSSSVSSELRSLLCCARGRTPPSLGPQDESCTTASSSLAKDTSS
Criterion: inhibition at 1 µM meeting or surpassing 3%. Met: True. Not met: False.

q: Does inhibition at 1 µM meet or surpass 3% for COC(=O)C(Cc1ccccc1)NC(=S)N1CCC(n2c(=O)[nH]c3ccccc32)CC1 (stereo not drawn) ?
a: False

q: Does inhibition at 1 µM meet or surpass 3% for CCCN(CCC)CCCn1c(=O)n(C2CCN(C(=O)NC(c3ccccc3)c3ccccc3)CC2)c2ccccc21 ?
a: True

q: Does inhibition at 1 µM meet or surpass 3% for CC(CN1CCCCC1)Cn1c(=O)n(C2CCN(C(=S)NC(c3ccccc3)c3ccccc3)CC2)c2ccccc21 (stereo not drawn) ?
a: False

q: Does inhibition at 1 µM meet or surpass 3% for COc1ccccc1NC(=S)N1CCC(n2c(=O)n(CCCN3CCCCC3)c3ccccc32)CC1 ?
a: True

q: Does inhibition at 1 µM meet or surpass 3% for O=C(Cc1ccc(N2CCCC2)cc1)n1c(=O)n(C2CCN(C(=S)NC(c3ccccc3)c3ccccc3)CC2)c2ccccc21 ?
a: False

q: Does inhibition at 1 µM meet or surpass 3% for O=c1n(CCCN2CCC(N3CCCCC3)CC2)c2ccccc2n1C1CCN(C(=S)NC(c2ccccc2)c2ccccc2)CC1 ?
a: True

q: Does inhibition at 1 µM meet or surpass 3% for CCN(CC)CCn1c(=O)n(C2CCN(C(=S)NC(c3ccccc3)c3ccccc3)CC2)c2ccccc21 ?
a: True

q: Does inhibition at 1 µM meet or surpass 3% for O=C(NCc1ccccc1)N1CCC(n2c(=O)[nH]c3ccccc32)CC1 ?
a: False

q: Does inhibition at 1 µM meet or surpass 3% for O=C(NC(c1ccccc1)c1ccccc1)N1CCC(n2c(=O)n(CCCN3CCCC3)c3ccccc32)CC1 ?
a: False

q: Does inhibition at 1 µM meet or surpass 3% for O=C(O)C(Cc1ccccc1)NC(=S)N1CCC(n2c(=O)[nH]c3ccccc32)CC1 (stereo not drawn) ?
a: False

q: Does inhibition at 1 µM meet or surpass 3% for O=c1n(CCCN2CCCCC2)c2ccccc2n1C1CCN(C(=S)NCc2ccc(Cl)c(Cl)c2)CC1 ?
a: False
